System: AB5075
test_details: Broth microdilution clarithromycin (CLR) potentiation and dose-response of adjuvant
Format: cell-based, Acinetobacter baumannii
measurement_parameters: compound tested at 30 μM
Method: Bacterial Strains and Antimicrobial Agents. Acinetobacter baumannii clinical isolate 5075 was obtained from Dr. Colin Manoil at the University of Washington. Colonies were grown on lysogeny broth (LB) agar. […] Broth microdilution method for antibiotic potentiation. […] MIC values were determined as the lowest concentration at which no bacterial growth was observed, and fold reductions were determined by comparison to antibiotic control lane. […]
measure: CLR MIC (µg/mL)
Report the value in µg/mL with no unit label.

Tell me the measured CLR MIC of Cc1cc(NC(=O)c2cc(Cl)cc(Cl)c2)ccc1-c1c[nH]c(N)n1.Cl , please.
0.5

Report CLR MIC for Cl.Nc1nc(-c2ccc(NC(=O)c3c(F)c(F)c(F)c(F)c3F)cc2)c[nH]1 please.
4

====

We begin with a simple list: items and their reported CLR MIC.
Test system: AB5075
test_details: Broth microdilution clarithromycin (CLR) potentiation and dose-response of adjuvant
Format: cell-based, Acinetobacter baumannii
measurement_parameters: compound tested at 30 μM
Number in µg/mL, nothing else.

Here is how some molecules turned out for CLR MIC.
Nc1nc(-c2ccc(NC(=O)c3cc(F)cc(F)c3)cc2)c[nH]1 :: 4
Cl.Nc1nc(-c2c(F)cc(NC(=O)c3cc(Cl)cc(Cl)c3)cc2F)c[nH]1 :: 4
Cc1cc(C)cc(C(=O)Nc2ccc(-c3c[nH]c(N)n3)cc2)c1.Cl :: 2
Cl.Nc1nc(-c2ccc(NC(=O)c3ccc(I)cc3)cc2)c[nH]1 :: 16
Cl.Nc1nc(-c2ccc(NC(=O)c3cc(Cl)cc(Cl)c3)c(F)c2)c[nH]1 [Compound 10c] :: 8

Which CLR MIC is reported with AB5075 for this entry: Cl.Nc1nc(-c2ccc(NC(=O)c3ccc(F)cc3)cc2)c[nH]1 ?
8

Where do the numbers come from? From patent US12559461B2.
